- System: Lomentospora prolificans
- Method: checkerboard drug interaction (FICI, MICc);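 note: simplified diagonal checkerboard screen pairing antifungals with FPPS inhibitors, FICI calculated under the Loewe additivity model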
- Measurement setup: in combination with 10-ZOL

>  <Compound>
CC(=O)N1CCN(c2ccc(OCC3COC(Cn4ccnc4)(c4ccc(Cl)cc4Cl)O3)cc2)CC1 (stereo not drawn) [KET, ketoconazole]

>  <antifungal MICc>
0.25

$$$$
>  <Compound>
Nc1nc(=O)[nH]cc1F [5FC, 5-flucytosine]

>  <antifungal MICc>
256

$$$$
>  <Compound>
CC[C@H](C)C[C@H](C)CCCCCCCCC(=O)N[C@H]1C[C@@H](O)[C@@H](NCCN)NC(=O)[C@@H]2[C@@H](O)CCN2C(=O)[C@H]([C@H](O)CCN)NC(=O)[C@H]([C@H](O)[C@@H](O)c2ccc(O)cc2)NC(=O)[C@@H]2C[C@@H](O)CN2C(=O)[C@H]([C@@H](C)O)NC1=O [CAS, caspofungin]

>  <antifungal MICc>
128

$$$$
